experiment: Therapeutic index, ratio of MHC50 for chicken RBC to MIC99 for Mycobacterium tuberculosis H37Rv; conditions: chicken red blood cells, read-out: TI
Listing of entries alongside the reported selectivity ratio.

COC(=O)CC[C@@H](C)[C@H]1CC[C@H]2[C@@H]3[C@H](OC(=O)CN)C[C@@H]4C[C@H](OC(=O)CN)CC[C@]4(C)[C@H]3CC[C@]12C = < 20
COC(=O)CC[C@@H](C)[C@H]1CC[C@H]2[C@@H]3[C@H](OC(=O)C[n+]4ccc(N(C)C)cc4)C[C@@H]4C[C@H](OC(=O)C[n+]5ccc(N(C)C)cc5)CC[C@]4(C)[C@H]3C[C@H](OC(=O)C[n+]3ccc(N(C)C)cc3)[C@]12C.[Cl-].[Cl-].[Cl-] = > 160
COC(=O)CC[C@@H](C)[C@H]1CC[C@H]2[C@@H]3CC[C@@H]4C[C@H](OC(=O)C[N+]5(C)CCCCC5)CC[C@]4(C)[C@H]3C[C@H](OC(=O)C[N+]3(C)CCCCC3)[C@]12C = > 160
COC(=O)CC[C@@H](C)[C@H]1CC[C@H]2[C@@H]3CC[C@@H]4C[C@H](OC(=O)C[n+]5ccccc5)CC[C@]4(C)[C@H]3CC[C@]12C = < 20

Now consider a different compound.
Value lookup for selectivity ratio; key = COC(=O)CC[C@@H](C)[C@H]1CC[C@H]2[C@@H]3CC[C@@H]4C[C@H](OC(=O)C[n+]5ccc(N(C)C)cc5)CC[C@]4(C)[C@H]3CC[C@]12C > 20

* * *

Listing of entries alongside the reported selectivity ratio.
assay: Therapeutic index, ratio of MHC50 for chicken RBC to MIC99 for Mycobacterium tuberculosis H37Rv; details: chicken red blood cells, read-out: TI

Recorded results for 2 compounds are shown here.
COC(=O)CC[C@@H](C)[C@H]1CC[C@H]2[C@@H]3CC[C@@H]4C[C@H](OC(=O)C[n+]5ccc(N(C)C)cc5)CC[C@]4(C)[C@H]3C[C@H](OC(=O)C[n+]3ccc(N(C)C)cc3)[C@]12C = > 213
COC(=O)CC[C@@H](C)[C@H]1CC[C@H]2[C@@H]3[C@H](OC(=O)CN)C[C@@H]4C[C@H](OC(=O)CN)CC[C@]4(C)[C@H]3C[C@H](OC(=O)CN)[C@]12C.Cl.Cl.Cl = < 20

Now consider a different compound.
Value lookup for selectivity ratio; key = COC(=O)CC[C@@H](C)[C@H]1CC[C@H]2[C@@H]3CC[C@@H]4C[C@H](OC(=O)C[N+]5(C)CCCCC5)CC[C@]4(C)[C@H]3CC[C@]12C > 20

* * *

system: Escherichia coli; assay: Antibacterial activity against Escherichia coli MTCC 443 after 12 hrs by microplate reader assay; format: functional; conditions: MTCC 443, 12 h
Listing of entries alongside the reported MIC99.

COC(=O)CC[C@@H](C)[C@H]1CC[C@H]2[C@@H]3[C@H](OC(=O)C[N+](C)(C)C)C[C@@H]4C[C@H](OC(=O)C[N+](C)(C)C)CC[C@]4(C)[C@H]3CC[C@]12C = 256 µM

Value lookup for MIC99; key = COC(=O)CC[C@@H](C)[C@H]1CC[C@H]2[C@@H]3CC[C@@H]4C[C@H](OC(=O)C[N+](C)(C)C)CC[C@]4(C)[C@H]3CC[C@]12C > 512 µM

Value lookup for MIC99; key = COC(=O)CC[C@@H](C)[C@H]1CC[C@H]2[C@@H]3[C@H](OC(=O)C[N+]4(C)CCCCC4)C[C@@H]4C[C@H](OC(=O)C[N+]5(C)CCCCC5)CC[C@]4(C)[C@H]3C[C@H](OC(=O)C[N+]3(C)CCCCC3)[C@]12C.[Cl-].[Cl-].[Cl-] > 512 µM

Value lookup for MIC99; key = COC(=O)CC[C@@H](C)[C@H]1CC[C@H]2[C@@H]3[C@H](OC(=O)C[N+](C)(C)C)C[C@@H]4C[C@H](OC(=O)C[N+](C)(C)C)CC[C@]4(C)[C@H]3C[C@H](OC(=O)C[N+](C)(C)C)[C@]12C.[Cl-].[Cl-].[Cl-] > 512 µM

* * *

assay: Therapeutic index, ratio of MHC50 for sheep RBC to MIC99 for Mycobacterium tuberculosis H37Rv; conditions: sheep red blood cells, read-out: TI
metric.name: selectivity ratio

COC(=O)CC[C@@H](C)[C@H]1CC[C@H]2[C@@H]3CC[C@@H]4C[C@H](OC(=O)C[N+]5(C)CCCCC5)CC[C@]4(C)[C@H]3CC[C@]12C = > 20
COC(=O)CC[C@@H](C)[C@H]1CC[C@H]2[C@@H]3CC[C@@H]4C[C@H](OC(=O)C[N+](C)(C)C)CC[C@]4(C)[C@H]3C[C@H](OC(=O)C[N+](C)(C)C)[C@]12C = < 20
COC(=O)CC[C@@H](C)[C@H]1CC[C@H]2[C@@H]3CC[C@@H]4C[C@H](OC(=O)C[n+]5ccccc5)CC[C@]4(C)[C@H]3CC[C@]12C = < 20
COC(=O)CC[C@@H](C)[C@H]1CC[C@H]2[C@@H]3[C@H](OC(=O)C[n+]4ccccc4)C[C@@H]4C[C@H](OC(=O)C[n+]5ccccc5)CC[C@]4(C)[C@H]3CC[C@]12C = > 40

Value lookup for selectivity ratio; key = COC(=O)CC[C@@H](C)[C@H]1CC[C@H]2[C@@H]3[C@H](OC(=O)C[N+](C)(C)C)C[C@@H]4C[C@H](OC(=O)C[N+](C)(C)C)CC[C@]4(C)[C@H]3CC[C@]12C > 80

* * *

Listing of entries alongside the reported log10 of MIC99.
system: Escherichia coli; experiment: Antibacterial activity against Escherichia coli MTCC 443 after 12 hrs by microplate reader assay; type: functional; conditions: MTCC 443, 12 h
Reminder: these figures are log10 of reported MIC99, in µM before transformation.

Recorded results for 2 compounds are shown here.
COC(=O)CC[C@@H](C)[C@H]1CC[C@H]2[C@@H]3CC[C@@H]4C[C@H](OC(=O)C[n+]5ccc(N(C)C)cc5)CC[C@]4(C)[C@H]3C[C@H](OC(=O)C[n+]3ccc(N(C)C)cc3)[C@]12C = 1.81
COC(=O)CC[C@@H](C)[C@H]1CC[C@H]2[C@@H]3[C@H](OC(=O)C[n+]4ccc(N(C)C)cc4)C[C@@H]4C[C@H](OC(=O)C[n+]5ccc(N(C)C)cc5)CC[C@]4(C)[C@H]3CC[C@]12C = 2.11

Now consider a different compound.
Value lookup for log10 of MIC99; key = COC(=O)CC[C@@H](C)[C@H]1CC[C@H]2[C@@H]3CC[C@@H]4C[C@H](OC(=O)C[N+](C)(C)C)CC[C@]4(C)[C@H]3C[C@H](OC(=O)C[N+](C)(C)C)[C@]12C 2.41

* * *

test system: Escherichia coli; assay: Antibacterial activity against Escherichia coli MTCC 443 after 12 hrs by microplate reader assay; type: functional; details: MTCC 443, 12 h
Listing of entries alongside the reported MIC99.

COC(=O)CC[C@@H](C)[C@H]1CC[C@H]2[C@@H]3[C@H](OC(=O)C[n+]4ccccc4)C[C@@H]4C[C@H](OC(=O)C[n+]5ccccc5)CC[C@]4(C)[C@H]3C[C@H](OC(=O)C[n+]3ccccc3)[C@]12C.[Cl-].[Cl-].[Cl-] = > 512 µM

Now consider a different compound.
Value lookup for MIC99; key = COC(=O)CC[C@@H](C)[C@H]1CC[C@H]2[C@@H]3[C@H](OC(=O)C[n+]4ccc(N(C)C)cc4)C[C@@H]4C[C@H](OC(=O)C[n+]5ccc(N(C)C)cc5)CC[C@]4(C)[C@H]3C[C@H](OC(=O)C[n+]3ccc(N(C)C)cc3)[C@]12C.[Cl-].[Cl-].[Cl-] > 512 µM

* * *

experiment: Therapeutic index, ratio of MHC50 for sheep RBC to MIC99 for Mycobacterium tuberculosis H37Rv; settings: sheep red blood cells, read-out: TI
Listing of entries alongside the reported selectivity ratio.

Value lookup for selectivity ratio; key = COC(=O)CC[C@@H](C)[C@H]1CC[C@H]2[C@@H]3[C@H](OC(=O)C[N+]4(C)CCCCC4)C[C@@H]4C[C@H](OC(=O)C[N+]5(C)CCCCC5)CC[C@]4(C)[C@H]3CC[C@]12C > 80

Value lookup for selectivity ratio; key = COC(=O)CC[C@@H](C)[C@H]1CC[C@H]2[C@@H]3CC[C@@H]4C[C@H](OC(=O)CN)CC[C@]4(C)[C@H]3C[C@H](OC(=O)CN)[C@]12C < 20

Value lookup for selectivity ratio; key = COC(=O)CC[C@@H](C)[C@H]1CC[C@H]2[C@@H]3[C@H](OC(=O)C[N+]4(C)CCCCC4)C[C@@H]4C[C@H](OC(=O)C[N+]5(C)CCCCC5)CC[C@]4(C)[C@H]3C[C@H](OC(=O)C[N+]3(C)CCCCC3)[C@]12C.[Cl-].[Cl-].[Cl-] > 40

Value lookup for selectivity ratio; key = COC(=O)CC[C@@H](C)[C@H]1CC[C@H]2[C@@H]3CC[C@@H]4C[C@H](OC(=O)CN)CC[C@]4(C)[C@H]3CC[C@]12C < 20

Value lookup for selectivity ratio; key = COC(=O)CC[C@@H](C)[C@H]1CC[C@H]2[C@@H]3CC[C@@H]4C[C@H](OC(=O)C[n+]5ccc(N(C)C)cc5)CC[C@]4(C)[C@H]3CC[C@]12C > 20

Value lookup for selectivity ratio; key = COC(=O)CC[C@@H](C)[C@H]1CC[C@H]2[C@@H]3[C@H](OC(=O)C[N+](C)(C)C)C[C@@H]4C[C@H](OC(=O)C[N+](C)(C)C)CC[C@]4(C)[C@H]3C[C@H](OC(=O)C[N+](C)(C)C)[C@]12C.[Cl-].[Cl-].[Cl-] > 20

Value lookup for selectivity ratio; key = COC(=O)CC[C@@H](C)[C@H]1CC[C@H]2[C@@H]3[C@H](OC(=O)CN)C[C@@H]4C[C@H](OC(=O)CN)CC[C@]4(C)[C@H]3C[C@H](OC(=O)CN)[C@]12C.Cl.Cl.Cl < 20

Value lookup for selectivity ratio; key = COC(=O)CC[C@@H](C)[C@H]1CC[C@H]2[C@@H]3[C@H](OC(=O)C[n+]4ccccc4)C[C@@H]4C[C@H](OC(=O)C[n+]5ccccc5)CC[C@]4(C)[C@H]3C[C@H](OC(=O)C[n+]3ccccc3)[C@]12C.[Cl-].[Cl-].[Cl-] > 26
